# TARGET_OF_ASSAY: MAL^TIR (Homo sapiens, UniProt P58753)
# Construct: MAL (residues 79–221); 6xHis; made in house; host or cells: E. coli BL21 (DE3)
# Sequence (P58753 79-221): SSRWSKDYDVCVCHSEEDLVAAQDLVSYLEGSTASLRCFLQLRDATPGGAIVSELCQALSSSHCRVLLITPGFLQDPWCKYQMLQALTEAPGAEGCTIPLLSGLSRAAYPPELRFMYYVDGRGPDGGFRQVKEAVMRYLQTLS
# TEST_DESCRIPTION: T‐Surf phage library (P8 and P3) selection against MAL^TIR, four rounds, NGS read counts
# Assay type: binding
# CONDITION_NOTES: P8 library, selection against MAL TIR; rank by count before grouping
# Protocol: T‐Surf libraries were screened against the immobilized TIR domains of two major human TLR adaptor proteins, MAL^TIR and MyD88^TIR, allowing cross‐species selection of TIR‐binding motifs with 190 946 TIR‐derived peptides in a single binding assay (Scheme 1). Enriched phage pools from the fourth round of selection were analyzed using NGS after barcoding the peptide‐coding regions of the phage pools. […]
Please respond with reported P8_MAL Rank (before) for every item in the list.
Answer using only a numeral; do not append any unit.

Name the recorded P8_MAL Rank (before) for ALCWAQLKIVLANLPI . 1926

For the sequence shown here, WFYELLVSLLLRDTKV , give the reported P8_MAL Rank (before). 1149

What value of P8_MAL Rank (before) has been recorded for this entry: AFFWAQVKSVLGNTTM 1603

State the recorded P8_MAL Rank (before) for this entry: EKIVEWVWGKVHRTFK 896

Item under review: AFLWTQLKSVLGNPTM . Reported P8_MAL Rank (before)? 1764

P8_MAL Rank (before) lookup needed for TFLCHQYNALVQAGIH , thanks. 2547

Consider the sequence shown here: ELDFSHFWLFDGQAGGEA What is its recorded P8_MAL Rank (before)? 2049

# input sequence: YFLHFLLCSRPETAYI ; wanted: its P8_MAL Rank (before) 1496

Consider the sequence shown here: LFFWESLKQLLRRAGL What is its recorded P8_MAL Rank (before)? 2096

Endpoint output: P8_MAL Rank (before) of LFLWESLKHLLRSDGR . Value? 2146

What value of P8_MAL Rank (before) has been recorded for this entry: RNFVAYLFRARANKGI 2193

Name the reported P8_MAL Rank (before) value associated with the sequence AFFWEQLRTVLGKPSI 1684

Which P8_MAL Rank (before) is listed for SEFIQKIILWLNTKIV ? 2461

Please report the recorded P8_MAL Rank (before) for RNLGAYLFQALANKGI . 2246

Dear colleague, I am looking for the recorded P8_MAL Rank (before) of the following sequence: YFLHFLLLAVRKPSI 791

What P8_MAL Rank (before) value was documented for this sequence, NHWRNALTAAANLIGW ? 2657

Fill in: P8_MAL Rank (before) of SFLYTFLITLTHPTTF is ___ 1447

Entry WFYESLVSMIMRDTKV : reported P8_MAL Rank (before) = ? 1303

Would you kindly share the measured P8_MAL Rank (before) for WFYERMVSMILRDTKV ? 1261

So what's the measured P8_MAL Rank (before) for this one? YFLHFLLFSLRKPSI 779

Give the measured P8_MAL Rank (before) of RKFEAYLFQALANKGI . 2257

Given the entry RNFMAYLFQALAHKGI , report its measured P8_MAL Rank (before). 2241

P8_MAL Rank (before) lookup needed for MFGGDTFHDFLDLISM , thanks. 1005

So what's the measured P8_MAL Rank (before) for this one? LFLWDSLKQPLRSDGR 2143

Which measured P8_MAL Rank (before) value corresponds to WFYERLVSLIQRDTTV ? 1278

Given the entry TLLCHLYNALVQAGIH , report its measured P8_MAL Rank (before). 2637

Suppose we examine the sequence FTLAVQVRNLLVGAFI ; what P8_MAL Rank (before) value has been reported? 1099

Form field: reported P8_MAL Rank (before) of AFFLAQLKSEPTNPTM 1581

Quick one: P8_MAL Rank (before) of CFYEGQLFLALADKSI ? 1106

// P8_MAL Rank (before) lookup, key: AYANFRQGLLRLPELLR 1946

So what's the measured P8_MAL Rank (before) for this one? GFYERQVSLVLGDTKV 1569

Looking for the measured P8_MAL Rank (before) of DSKLKKGESIAPALLR , can you help? 1986

Sample AFFWARLQSVLGNPTM — what was its P8_MAL Rank (before)? 1654

Fill in the blank: the reported P8_MAL Rank (before) of NLIQGWLLYRLLKIEK is ____. 2678

Consider the sequence shown here: LFFWESLKQRLRSDVR What is its recorded P8_MAL Rank (before)? 2118

What measured P8_MAL Rank (before) goes with KLLWVKFKFFLPSLSR ? 2730

P8_MAL Rank (before) for CFYERLVNLILRDTKV ? 1107

Record request: P8_MAL Rank (before) value, item WFYECLVSLILRVTKV 1145

Entry CFYQRLVSLILHDTKV : reported P8_MAL Rank (before) = ? 1108

Entry RNNFIGHQYQALYRSR : reported P8_MAL Rank (before) = ? 2291

Recorded P8_MAL Rank (before) for DTKLKKCESIAPELLL , please? 2014

Would you kindly share the measured P8_MAL Rank (before) for KLFWEKFKFFLPTPSR ? 2708

Please look up its P8_MAL Rank (before): DPQDLEWFYERLFSQM 876

Requested field: P8_MAL Rank (before). Item: KWFWDKLIYALSRNPH 1067

I'd like to know its P8_MAL Rank (before). The sequence in question is RWFLDELVKIMERKRT 926

Which P8_MAL Rank (before) value is on record for RNFVAYLFQALADKGV ? 2198

Query: P8_MAL Rank (before); subject: IFCISCCLAVRKPSI 2434

Need P8_MAL Rank (before), item WFMMKFRTVLGKPTM 760

Bench note: what P8_MAL Rank (before) did LFFCESLKQLLRSDGH show? 2057

Record request: P8_MAL Rank (before) value, item ARFKDMIINKWRTALT 869

So what's the measured P8_MAL Rank (before) for this one? WFYERLVSLILRYTKE 1197

Suppose we examine the sequence WFYERMVRLILRDTKV ; what P8_MAL Rank (before) value has been reported? 1291

Reported P8_MAL Rank (before) for SFLYTLLSNLTHPTNF : what is it? 1449

Dear colleague, I am looking for the recorded P8_MAL Rank (before) of the following sequence: WFLFTVRSATYTMSPA 1338

Fill in the blank: the reported P8_MAL Rank (before) of AFLYTFLINDPSDQF is ____. 1836

# input sequence: AFLYTFLINPTHPTNS ; wanted: its P8_MAL Rank (before) 1859

Entry WFYEPLVSLILRDTKL has what P8_MAL Rank (before)? 1293

# lookup: P8_MAL Rank (before) of TFLIHQNNARMHANIL 2545

Name the recorded P8_MAL Rank (before) for WKNALANIAEILGFEL . 1431

Requested read-out: P8_MAL Rank (before). Entry: QLIQPWMELHLHQLHL 2346

Sample SSWWILKELQEILNYQ — what was its P8_MAL Rank (before)? 2529

# input sequence: AFLYLSDQSDPSDQF ; wanted: its P8_MAL Rank (before) 1915

Which P8_MAL Rank (before) is reported for this sequence? TFLGHLYIALVQTGIH 2558
